List of pKi values.
Molecular target: α-NgCA (Neisseria gonorrhoeae)
Construct: gene cah
Assay: biochemical
Parameters: stopped-flow CO2 hydration assay of recombinant carbonic anhydrases, pH 7.4 (alpha) or 8.3 (gamma), KI
pKi: −log10 of the molar value.

[
  {
    "smiles.entry": "CCCCN(CC)C(=O)S",
    "pKi": 6.12
  },
  {
    "smiles.entry": "CCOC(=O)CN(C)C(=O)S",
    "pKi": 6.04
  },
  {
    "smiles.entry": "CCCN(CCC)C(=O)S",
    "pKi": 6.10
  },
  {
    "smiles.entry": "CN1CCN(C(=O)S)CC1",
    "pKi": 6.14
  },
  {
    "smiles.entry": "CCCCN(CCCC)C(=O)S",
    "pKi": 6.08
  },
  {
    "smiles.entry": "CC(C)CN(CC(C)C)C(=O)S",
    "pKi": 6.05
  },
  {
    "smiles.entry": "O=C(S)N1CCOCC1",
    "pKi": 6.12
  },
  {
    "smiles.entry": "CN(Cc1ccccc1)C(=O)S",
    "pKi": 6.07
  },
  {
    "smiles.entry": "O=C(S)N1CCN(C(=O)S)CC1",
    "pKi": 6.20
  },
  {
    "smiles.entry": "O=C(S)NCCc1ccccc1",
    "pKi": 6.19
  }
]

---

Below, each entry is listed alongside its reported Ki.
Target: α-NgCA (Neisseria gonorrhoeae, UniProt Q50940)
Construct: gene cah
Sequence (Q50940 27-252): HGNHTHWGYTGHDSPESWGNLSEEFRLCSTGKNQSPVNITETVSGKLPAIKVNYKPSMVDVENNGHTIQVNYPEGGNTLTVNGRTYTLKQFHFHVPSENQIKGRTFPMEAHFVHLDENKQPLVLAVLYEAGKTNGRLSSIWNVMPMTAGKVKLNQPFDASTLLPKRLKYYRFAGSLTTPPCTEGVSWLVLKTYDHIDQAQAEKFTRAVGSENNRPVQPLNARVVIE
Assay: stopped-flow CO2 hydrase assay
Format: biochemical

[
  {
    "smiles.entry": "COc1ccc(CCNC(=O)S)cc1OC",
    "endpoint.unit": "µM",
    "Ki": 0.512
  },
  {
    "smiles.entry": "O=C(S)N1CCN(c2ccc(F)cc2)CC1",
    "endpoint.unit": "µM",
    "Ki": 0.417
  },
  {
    "smiles.entry": "O=C(CN1CCN(C(=O)S)CC1)NC1CCCCC1",
    "endpoint.unit": "µM",
    "Ki": 0.395
  },
  {
    "smiles.entry": "O=C(S)N1CCN(c2cccc(Cl)c2)CC1",
    "endpoint.unit": "µM",
    "Ki": 0.367
  },
  {
    "smiles.entry": "O=C(S)N1CCN(c2ccc(C(F)(F)F)cc2)CC1",
    "endpoint.unit": "µM",
    "Ki": 0.394
  }
]

---

Molecular target: γ-EfCA
Assay: stopped-flow CO2 hydrase assay
Assay type: biochemical, Enterococcus faecium
Conditions: CO2 hydration, pH 8.3
Recorded Ki by entry

[
  {
    "compound": "O=C(S)N1CCN(c2ccc(C(F)(F)F)cc2)CC1 [compound 13, MTC 13]",
    "assay.system": "γ-EfCA",
    "Ki (µM)": 0.334
  },
  {
    "compound": "O=C(CN1CCN(C(=O)S)CC1)NC1CCCCC1 [compound 5, MTC 5]",
    "assay.system": "γ-EfCA",
    "Ki (µM)": 0.417
  },
  {
    "compound": "O=C(S)N1CCN(c2cccc(Cl)c2)CC1 [compound 15, MTC 15]",
    "assay.system": "γ-EfCA",
    "Ki (µM)": 0.214
  },
  {
    "compound": "O=C(S)N1CCN(c2ccc(F)cc2)CC1 [compound 14, MTC 14]",
    "assay.system": "γ-EfCA",
    "Ki (µM)": 0.149
  },
  {
    "compound": "CCOC(=O)CN(C)C(=O)S [compound 7, MTC 7]",
    "assay.system": "γ-EfCA",
    "Ki (µM)": 0.279
  },
  {
    "compound": "COc1ccc(CCNC(=O)S)cc1OC [compound 12, MTC 12]",
    "assay.system": "γ-EfCA",
    "Ki (µM)": 0.358
  }
]
